stated_conditions: 338.15 K; 101.33 kPa; Liquid; Vibrating tube method
Can you tell me mass density for the items I'm about to list?
// units = kg/m3; emit number, no label

Inquiry: Supply reported mass density belonging to this compound: CCOC(C)=O [ethyl acetate]
Reply text: 843.858

Inquiry: Supply reported mass density belonging to this compound: "CCCCCCC"
Reply text: 644.767

Inquiry: Supply reported mass density belonging to this compound: CCOC(=O)CC(=O)OCC [diethyl 1,3-propanedioate]
Reply text: 1006.5

Inquiry: Supply reported mass density belonging to this compound: "CCCCCO"
Reply text: 781.05

Inquiry: Supply reported mass density belonging to this compound: "CC(C)CO"
Reply text: 765.452

Inquiry: Supply reported mass density belonging to this compound: "CCCCO"
Reply text: 774.032
